- assay-summary: Size and zeta potential of nanocomplexes by dynamic light scattering
- Type: physicochemical
- applied-conditions: DLS; siRNA/peptide nanocomplex 20:1 N/P, 200 nM siRNA in HBSS; mean (± SD in table), n = 3
Listing of recorded polydispersity index (PdI) by entry.

[
  {
    "monomer-sequence": "ACTGSTQHQCGGCGRRRRRRR [S-R7]",
    "polydispersity index (PdI)": 0.217
  },
  {
    "monomer-sequence": "ACTGSTQHQCGGCGRRRRRRRRRRRRRRR [S-R15]",
    "polydispersity index (PdI)": 0.04
  },
  {
    "monomer-sequence": "ACTGSTQHQCG [SPACE, skin permeating and cell entering peptide, …, artificial, reference compound]",
    "polydispersity index (PdI)": 0.889
  },
  {
    "monomer-sequence": "ACTGSTQHQCGGCGRRRRRRRRRRR [S-R11]",
    "polydispersity index (PdI)": 0.235
  }
]
